Origin of the recorded values: patent US20220073617A1

- assay-target: T1, monovalent hVISTA-ECD (human VISTA extracellular domain with His tail) (human, UniProt Q9H7M9 33-193)
- T1 construct: analyte flowed over captured antibody; also called huVISTA-His
- T1 sequence (Q9H7M9 other isoform, or with tags, fused parts or gaps limits assumed): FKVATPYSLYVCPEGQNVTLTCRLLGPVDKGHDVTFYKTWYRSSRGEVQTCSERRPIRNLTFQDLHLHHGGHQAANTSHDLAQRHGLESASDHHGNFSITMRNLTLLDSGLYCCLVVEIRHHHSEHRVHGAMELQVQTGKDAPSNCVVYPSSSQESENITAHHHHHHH
- assay-details: SPR, pH 6.0
Recorded measurements of koff, one per entry

binder	koff
P1-064502 (41F11_Vk_R96YA64G) (antibody, V domains shown, also called P1-064502-1) VH: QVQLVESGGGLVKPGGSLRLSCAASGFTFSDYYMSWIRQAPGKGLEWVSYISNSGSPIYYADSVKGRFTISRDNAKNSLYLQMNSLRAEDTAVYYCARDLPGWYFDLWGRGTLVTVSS VL: EIVLTQSPATLSLSPGERATLSCRASQSVSSYLAWYQQKPGQAPRLLIYDASNRATGIPARFSGSGSGTDFTLTISSLEPEDFAVYYCQQRNNWPYTFGQGTKVEIK	0.332 s⁻¹
P1-065332 (41F11_VH_T28P/Y50W/S55E/A60H/Y100E VK_A64G) (antibody, V domains shown, Kabat positions; also called P1-065332-1) VH: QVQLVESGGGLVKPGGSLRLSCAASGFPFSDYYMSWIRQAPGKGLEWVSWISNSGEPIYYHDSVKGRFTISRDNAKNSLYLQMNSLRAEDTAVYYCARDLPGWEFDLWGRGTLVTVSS VL: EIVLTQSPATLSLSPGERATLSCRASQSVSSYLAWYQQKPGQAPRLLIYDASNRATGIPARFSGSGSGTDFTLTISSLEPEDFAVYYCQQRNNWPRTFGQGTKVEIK	0.00221 s⁻¹
P1-065329 (41F11_VH_D31E/S35Y/Y50W/S55E/A60H/Y100E/F100aG VK_A64G) (antibody, V domains shown, Kabat positions; also called P1-065329-1) VH: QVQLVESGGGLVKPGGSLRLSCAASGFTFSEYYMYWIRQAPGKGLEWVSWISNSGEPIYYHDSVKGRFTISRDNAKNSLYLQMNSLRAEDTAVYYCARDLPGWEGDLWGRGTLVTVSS VL: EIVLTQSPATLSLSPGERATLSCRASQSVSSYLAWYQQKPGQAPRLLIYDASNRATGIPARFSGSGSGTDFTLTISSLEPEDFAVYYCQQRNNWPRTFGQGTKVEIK	0.00791 s⁻¹
